- test.target: T1, human PSMA expressed with an N-terminal hexahistidine tag (6h.hPSMA, R&D) (human, UniProt Q04609 44-750)
- T1 construct: Bought soluble protein; also called soluble human PSMA; human PSMA protein
- T1 sequence (Q04609 other isoform, or with tags, fused parts or gaps limits assumed): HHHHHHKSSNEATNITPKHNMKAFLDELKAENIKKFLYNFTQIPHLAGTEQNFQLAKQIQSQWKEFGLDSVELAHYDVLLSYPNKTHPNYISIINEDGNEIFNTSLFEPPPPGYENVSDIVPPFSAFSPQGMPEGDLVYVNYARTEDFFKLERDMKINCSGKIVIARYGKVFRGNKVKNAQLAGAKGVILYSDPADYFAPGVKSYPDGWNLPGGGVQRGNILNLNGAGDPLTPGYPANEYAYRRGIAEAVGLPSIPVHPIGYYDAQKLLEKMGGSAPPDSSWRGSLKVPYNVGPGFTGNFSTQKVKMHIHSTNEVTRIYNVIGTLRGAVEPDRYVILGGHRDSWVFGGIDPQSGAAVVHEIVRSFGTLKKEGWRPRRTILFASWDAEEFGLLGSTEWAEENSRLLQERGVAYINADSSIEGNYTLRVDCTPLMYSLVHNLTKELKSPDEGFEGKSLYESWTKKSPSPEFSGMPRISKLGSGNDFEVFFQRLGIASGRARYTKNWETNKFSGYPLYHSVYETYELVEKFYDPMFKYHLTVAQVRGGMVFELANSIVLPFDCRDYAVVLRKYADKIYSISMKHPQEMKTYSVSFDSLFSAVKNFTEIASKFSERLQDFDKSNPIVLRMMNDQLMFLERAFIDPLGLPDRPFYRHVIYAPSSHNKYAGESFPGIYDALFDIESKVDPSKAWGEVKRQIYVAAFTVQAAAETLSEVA
- test.summary: SPR Biacore T-200, 37 C, antibody-capture (anti-human Fc), 6h.hPSMA as analyte
value.type: t1/2 (min)

{"columns": ["binder", "value.type", "readout.number"],
 "data": [
  ["H1H11805P2 (antibody, human IgG1, V domains shown, human IgG1) VH: EVQLVESGGGLVQPGGSLRLSCVVSGFTFNNYWMSWVRQAPGKGLEWVANIKKDGSEKYYVDSVKGRFTISRDNAKNSLYLQMNSLRAEDTAVYYCARDIMATIIDWGQGTLVTVSS VL: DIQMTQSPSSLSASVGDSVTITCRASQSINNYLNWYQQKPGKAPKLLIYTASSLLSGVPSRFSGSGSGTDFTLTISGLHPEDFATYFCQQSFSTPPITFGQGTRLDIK", "t1/2", 1.2],
  ["H1H3465P (antibody, human IgG1, V domains shown, human IgG1; also called PSMA-VH-3465 (its HCVR)) VH: QVQLVESGGGVVQPGRSLRLSCAASGFTFITYGMHWVRQAPGKGLEWVAIIYYDESNKYYADSVKGRFTISRDISKNTLYLQMNGLRAEDTAVYYCARAPRVAVEEDYSYYYGMDVWGQGTTVTVSS VL: DIQMTQSPSSLSASVGDRVTITCRASQGIRNDLGWYQQKPGRAPKRLIYGASNLQSGVPSRFSGSGSGTEFTLTISSLQPEDFATYYCLQHNSHPYTFGQGTKLEIK", "t1/2", 191],
  ["H1H11837P2 (antibody, human IgG1, V domains shown, human IgG1) VH: QVQLVESGGGVVQPGRSLRLSCAASGFTFSSYGMHWVRQAPGKGLEWVTFISYDGNNKYYSDSVKGRFAISRDNSKNTLYLQMNSLRAEDTSVYFCAKDQYYDFLTDFGVFDYWGQGTLVTVSS VL: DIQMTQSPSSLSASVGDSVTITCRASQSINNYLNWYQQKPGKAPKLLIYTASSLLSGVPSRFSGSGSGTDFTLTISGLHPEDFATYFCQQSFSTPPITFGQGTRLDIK", "t1/2", 15.7]
]}
